Origin of values: ChEMBL document CHEMBL4342426

Exercise: state measured CLint scaled at 0.5 h, 0.5 µM for each of the compounds provided.
- assay_info: in vitro
- details: human, liver microsomes
- Description: Metabolic stability in human liver microsomes assessed as intrinsic clearance at 0.5 uM incubated for 30 mins by LC-MS/MS analysis
Numbers only, in mL/min/kg.

compound="O=C(c1cc(C(F)(F)F)no1)N1CCCC(c2cc3nc(NCc4ccccc4)ccc3[nH]2)C1 (stereo unspecified)" observed_result=1870

Hello, I would appreciate it if you could give CLint scaled at 0.5 h, 0.5 µM for each entry below.
1. CN(C(=O)c1ccccc1)c1cccc(-c2cc3ncccc3[nH]2)c1
2. CC(C)(C)c1cc(C(=O)N2CCCC(c3cc4ncccc4[nH]3)C2)on1 (stereo unspecified)
3. O=C(c1cc(C(F)(F)F)no1)N1CCC(c2cc3ncccc3[nH]2)C1 (stereo unspecified)
4. O=C(c1ccccc1)N1CCC(O)(c2cc3ncccc3[nH]2)CC1

OUTPUT:
[83.7, 321, 95.8, 52]

INPUT: Specify reported CLint scaled at 0.5 h, 0.5 µM for the compound shown: Cc1ccoc1C(=O)N1CCCC(c2cc3ncccc3[nH]2)C1 (stereo unspecified)
OUTPUT: 167
